System: MG63 cells
test.method.notes: Cell growth, viable cell count by GUAVA Viacount
Type: cell-based, human
settings: Homo sapiens, MG-63; 48 hours; read-out: concentration able to induce 50% cell growth inhibition

compound | IC50
CCN(CC)CCCCNc1ncc2cc(-c3cc(OC)cc(OC)c3)c(NC(=O)NC(C)(C)C)nc2n1 [PD173074] | 10 to 25 µM
